target: NRAS G12C (Homo sapiens, UniProt P01111+P62937, G12C); experiment: Ras-Raf disruption / FRET / MOA assay (BRAF RBD); type: biochemical; conditions: NRAS G12C; read-out: NRAS G12C FRET data IC50
Sequence (P01111 whole entry G12C): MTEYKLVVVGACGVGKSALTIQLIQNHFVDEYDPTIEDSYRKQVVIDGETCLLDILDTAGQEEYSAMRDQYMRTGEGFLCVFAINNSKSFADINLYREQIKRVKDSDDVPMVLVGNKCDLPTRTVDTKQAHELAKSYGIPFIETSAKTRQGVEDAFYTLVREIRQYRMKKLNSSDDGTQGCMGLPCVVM
Sequence (P62937 whole entry): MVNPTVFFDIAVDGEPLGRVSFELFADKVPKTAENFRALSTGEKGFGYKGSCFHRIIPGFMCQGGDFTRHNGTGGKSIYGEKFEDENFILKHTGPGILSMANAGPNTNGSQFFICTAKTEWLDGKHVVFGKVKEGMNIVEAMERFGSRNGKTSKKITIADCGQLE
pIC50: −log10 of the molar value.
Reported pIC50 values for the following compounds.

Example compounds with recorded pIC50:
1. CCn1c(-c2cccnc2[C@H](C)OC)c2c3cc(ccc31)-c1cc(O)cc(c1)C[C@H](NC(=O)[C@H](C(C)C)N(C)C(=O)[C@H]1CCN(C(=O)[C@H]3CN3)C1)C(=O)N1CCC[C@H](N1)C(=O)OCC(C)(C)C2 (single isomer, unassigned) [Example 43A] ... > 8.00
2. CCn1c(-c2cccnc2[C@H](C)OC)c2c3cc(ccc31)-c1cc(O)cc(c1)C[C@H](NC(=O)[C@H](C(C)C)N(C)C(=O)[C@H]1CCN(C(=O)C3(C)CO3)C1)C(=O)N1CCC[C@H](N1)C(=O)OCC(C)(C)C2 (stereo partly shown) ... 7.00 to 8.00
3. CCn1c(-c2cccnc2[C@H](C)OC)c2c3cc(ccc31)-c1cc(O)cc(c1)C[C@H](NC(=O)[C@H](C(C)C)N(C)C(=O)N1C[C@@H]3[C@H]1CCN3C(=O)[C@@H]1CN1)C(=O)N1CCC[C@H](N1)C(=O)OCC(C)(C)C2 (atropisomer, axis not shown) ... 7.00 to 8.00

Please turn your attention to the following entry.
Lookup: # assay system NRAS G12C (Homo sapiens, UniProt P01111+P62937, G12C): give pIC50 of CCn1c(-c2cccnc2[C@H](C)OC)c2c3cc(ccc31)-c1cc(O)cc(c1)C[C@H](NC(=O)[C@H](C(C)C)N(C)C(=O)[C@H]1CCN(C(=O)[C@H]3CN3)C1)C(=O)N1CCC[C@H](N1)C(=O)OCC(C)(C)C2 (single isomer, unassigned) [Example 43B]
Found: 7.00 to 8.00

// data source = patent US20230233569A1
